Target protein (sequence): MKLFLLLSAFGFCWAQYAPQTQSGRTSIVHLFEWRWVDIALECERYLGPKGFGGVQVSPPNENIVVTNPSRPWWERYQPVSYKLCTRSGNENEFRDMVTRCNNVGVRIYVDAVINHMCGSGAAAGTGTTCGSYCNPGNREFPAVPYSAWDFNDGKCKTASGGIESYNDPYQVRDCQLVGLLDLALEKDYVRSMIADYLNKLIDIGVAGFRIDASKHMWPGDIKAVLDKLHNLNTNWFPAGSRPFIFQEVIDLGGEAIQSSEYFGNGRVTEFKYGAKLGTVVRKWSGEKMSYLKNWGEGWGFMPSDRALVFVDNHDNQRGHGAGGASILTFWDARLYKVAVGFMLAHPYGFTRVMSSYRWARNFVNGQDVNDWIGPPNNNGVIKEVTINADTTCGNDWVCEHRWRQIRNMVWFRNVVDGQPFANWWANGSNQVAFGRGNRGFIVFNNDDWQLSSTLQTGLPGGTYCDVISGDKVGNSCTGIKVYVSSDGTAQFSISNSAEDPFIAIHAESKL
pIC50: −log10 of the molar value.
Listing of entries alongside the reported pIC50.
endpoint.label: pIC50

1) OC1[C@H](O)O[C@H](Cn2cc(-c3ccccc3)nn2)[C@@H]1O (some centres not stated) | 4.05
2) CO[C@@H]1O[C@H](Cn2cc(C3=CCCCC3)nn2)[C@@H]2OC(C)(C)OC12 (some centres not stated) | 3.82

----------
Overview of recorded log10(Ki) for various molecules
Target chain: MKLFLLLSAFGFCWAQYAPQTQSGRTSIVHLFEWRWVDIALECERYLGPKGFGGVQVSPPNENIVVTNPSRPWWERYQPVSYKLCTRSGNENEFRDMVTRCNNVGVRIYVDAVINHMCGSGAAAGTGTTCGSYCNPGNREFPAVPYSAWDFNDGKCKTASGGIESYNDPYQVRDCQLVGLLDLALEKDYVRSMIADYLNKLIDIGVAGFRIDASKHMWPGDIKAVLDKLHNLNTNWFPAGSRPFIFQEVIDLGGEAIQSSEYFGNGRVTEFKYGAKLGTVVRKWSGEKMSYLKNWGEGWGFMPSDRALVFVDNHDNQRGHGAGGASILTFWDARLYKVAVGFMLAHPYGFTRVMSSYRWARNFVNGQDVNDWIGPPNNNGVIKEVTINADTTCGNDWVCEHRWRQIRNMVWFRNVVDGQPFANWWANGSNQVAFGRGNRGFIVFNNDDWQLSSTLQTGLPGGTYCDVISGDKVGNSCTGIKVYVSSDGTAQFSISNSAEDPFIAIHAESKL
endpoint.label: log10(Ki) (log10 of the value in µM)

1. OC1[C@H](O)O[C@H](Cn2cc(C3=CCCCC3)nn2)[C@@H]1O (stereo not given in full) [GPESB15] | 1.53
2. CO[C@@H]1O[C@H](Cn2cc(COC(C)=O)nn2)[C@@H]2OC(C)(C)OC12 (stereo not given in full) [GPESB11] | 2.37
3. CO[C@@H]1O[C@H](Cn2cc(-c3ccccc3)nn2)[C@@H]2OC(C)(C)OC12 (stereo not given in full) [GPESB01] | 2.89
4. CO[C@@H]1O[C@H](Cn2cc(C3=CCCCC3)nn2)[C@@H]2OC(C)(C)OC12 (stereo not given in full) [GPESB02] | 2.53
5. OC1[C@H](O)O[C@H](Cn2cc(-c3ccccc3)nn2)[C@@H]1O (stereo not given in full) [GPESB14] | 2.31

Sourced from BindingDB's records for doi:10.1002/cbic.201200272
